target under test: Group IIE secretory phospholipase A2 (Mus musculus, UniProt Q9QUL3)
Sequence (Q9QUL3 whole entry): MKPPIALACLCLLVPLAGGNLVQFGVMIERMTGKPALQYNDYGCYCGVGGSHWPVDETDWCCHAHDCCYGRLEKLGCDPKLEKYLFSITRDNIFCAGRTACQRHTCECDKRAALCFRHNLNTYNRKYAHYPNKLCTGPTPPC
protocol notes: Inhibition of mouse group IIE phospholipase A2 incubated for 10 to 20 mins cells by radiometric assay
measured metric: pIC50
Formally, pIC50 is defined as -log10 of the concentration c, with c in mol/L.

INPUT: Look up pIC50 for this compound: Cc1c(C(=O)C(N)=O)c2c(OCC(=O)O)cccn2c1Cc1ccccc1-c1ccccc1
OUTPUT: 8.00

* * *

target under test: Group IIE secretory phospholipase A2 (Homo sapiens)
Sequence (Q9NZK7 whole entry): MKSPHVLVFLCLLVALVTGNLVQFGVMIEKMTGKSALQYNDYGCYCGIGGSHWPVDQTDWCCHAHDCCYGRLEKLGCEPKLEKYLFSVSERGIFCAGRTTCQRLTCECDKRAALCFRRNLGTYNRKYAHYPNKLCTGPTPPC
protocol notes: Inhibition of human group IIE phospholipase A2 expressed in Escherichia coli BL21 cells incubated for 10 to 20 mins cells by radiometric assay
measured metric: pIC50
Formally, pIC50 is defined as -log10 of the concentration c, with c in mol/L.

INPUT: Look up pIC50 for this compound: Cc1c(C(=O)C(N)=O)c2c(OCC(=O)O)cccn2c1Cc1ccccc1-c1ccccc1
OUTPUT: 8.00
